- Test system: RAW264.7
- assay.method.text: Antiinflammatory activity against LPS-stimulated mouse RAW264.7 cells assessed as inhibition of NO production at 50 uM after 20 hrs relative to control
- Type: functional
- condition.info: RAW264.7, 20 h
reported.metric: inhibition at 50 µM

Example entries begin here.
CCNC(=S)Nc1ccc(-c2ccccc2)cc1
23%
CCN/C(=N/c1ccc(C)cc1)SC(C)C
14%
CCCc1ccc(/N=C(/NCC)SC(C)C)cc1
71%
CCN/C(=N/c1ccc(OCCn2c3ccccc3c3ccccc32)cc1)SC
100%
CC(C)S/C(N)=N\c1ccc(OCCn2c3ccccc3c3ccccc32)cc1
30%

# batch size: 2; output inhibition at 50 µM per entry
1. CCNC(=S)Nc1ccc(Cl)cc1
2. CCNC(=S)Nc1ccc(O)cc1

Result block:
1. 11%
2. 20%

Batch of 4 compounds: report inhibition at 50 µM for each.
1. CCNC(=S)Nc1ccc(OCC)cc1
2. CCS/C(N)=N\c1ccc(OCCn2c3ccccc3c3ccccc32)cc1
3. CCNC(=S)Nc1ccc(C)cc1
4. CCN/C(=N/c1ccc(OCCn2c3ccccc3c3ccccc32)cc1)SCc1ccc(C(=O)OC)cc1

Result block:
1: 12%; 2: 64%; 3: 14%; 4: 17%

Please look at the items below and tell me inhibition at 50 µM for each one, in order.
1. CS/C(N)=N\c1ccc(OCCn2c3ccccc3c3ccccc32)cc1
2. CCN/C(=N/c1ccc(OCCn2c3ccccc3c3ccccc32)cc1)SCc1ccccc1
3. CCN/C(=N/c1ccc(OCCn2c3ccccc3c3ccccc32)cc1)SCc1ccc(C(=O)O)cc1
4. CCCc1ccc(NC(=S)NCC)cc1
5. CCN/C(=N/c1ccc(-c2ccccc2)cc1)SC(C)C
6. CCN/C(=N/c1ccc(Cl)cc1)SC(C)C
7. CCN/C(=N/c1ccc(OCC)cc1)SC(C)C

Result block:
["24%", "33%", "100%", "23%", "96%", "62%", "22%"]

Query block: Name the recorded inhibition at 50 µM for `CCN/C(=N/c1ccc(OCCn2c3ccccc3c3ccccc32)cc1)SCc1ccc(F)cc1` .
Result block: 40%

Each recorded value in this set is attributed to ChEMBL document CHEMBL1136868.
